biological target: CDK16 (human) (UniProt Q00536); assay: KINOMEscan competition binding; conditions: compound 10.0 µM
Sequence (Q00536 whole entry, looked up): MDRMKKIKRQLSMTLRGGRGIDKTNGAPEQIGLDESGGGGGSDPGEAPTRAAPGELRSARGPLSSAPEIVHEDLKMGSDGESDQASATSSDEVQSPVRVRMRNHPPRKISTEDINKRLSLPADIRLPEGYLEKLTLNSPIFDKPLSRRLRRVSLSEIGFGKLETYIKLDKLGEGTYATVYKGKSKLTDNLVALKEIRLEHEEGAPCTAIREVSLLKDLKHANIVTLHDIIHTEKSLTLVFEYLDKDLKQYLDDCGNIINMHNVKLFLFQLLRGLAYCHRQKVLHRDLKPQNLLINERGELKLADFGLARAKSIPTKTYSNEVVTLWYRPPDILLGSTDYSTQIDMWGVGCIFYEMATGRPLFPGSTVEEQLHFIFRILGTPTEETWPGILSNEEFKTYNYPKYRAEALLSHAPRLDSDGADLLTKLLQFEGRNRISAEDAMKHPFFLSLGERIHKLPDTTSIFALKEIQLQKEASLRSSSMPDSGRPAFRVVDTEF
recorded_endpoint: kinase still bound, per cent of control (%)
One number for each entry, in %.

Example entries and their recorded answers appear below.
>  <compound>
COc1cc(C(=O)NC2CCN(C)CC2)ccc1Nc1ncc2c(n1)N(C1CCCC1)C(C)CC(=O)N2C (centres undefined)

>  <unit_string>
%

>  <kinase still bound, per cent of control>
100

$$$$
>  <compound>
O=C(NC1CC1)c1cccc(-c2ccc3c(NC(=O)C4CC4)n[nH]c3c2)c1

>  <unit_string>
%

>  <kinase still bound, per cent of control>
5

$$$$

Field: kinase still bound, per cent of control. Fill in for each record below.
1. O=C(O)c1ccc(Nc2ncc3c(n2)-c2ccc(Cl)cc2C(c2c(F)cccc2F)=NC3)cc1
2. O=C(NOC[C@H](O)CO)c1ccc(F)c(F)c1Nc1ccc(I)cc1F
3. Cc1ccc(NC(=O)c2cccc(C(C)(C)C#N)c2)cc1Nc1ccc2ncn(C)c(=O)c2c1
4. Nc1ccc(-c2ccc3ncc4ccc(=O)n(-c5cccc(C(F)(F)F)c5)c4c3c2)cn1

Reply:
[100, 100, 100, 98]
